- System: HCT-15 colon
- method summary: NCI-60 one-dose screen, 48 h (100 = growth as untreated, 0 = no growth, -100 = all killed)
- condition details: 10 µM
This is part of a sample that, as a whole, favours compounds with a hit. Of some 83,000 tested, about 20% had one in any assay.
Response field class: string, computed from recorded growth by ranges bin A: < 20%; bin B: ≥ 20% and < 90%; bin C: ≥ 90%

compound | class name
CCOC(=O)c1cc(C(=O)c2cc(OC)c(OC)c(OC)c2)n2ncc3ccccc3c12 | bin B
COc1ccc(-c2nn(-c3cccc(Cl)c3)cc2-c2cc(-c3ccccc3)[nH]c(=O)c2C#N)cc1 | bin B
C(=N\Nc1ncnc2sc3c(c12)CCNC3)/c1cccc2ccccc12 | bin A
COc1ccc(-c2nn(-c3cccc(Cl)c3)cc2-c2c(C#N)c(=O)n3[nH]c(-c4ccccc4)nc3c2C#N)cc1 | bin C
N#CC1=CC2CN(Cc3ccccc3)C1C1C(=O)N(c3ccccc3)C(=O)C21 (centres undefined) | bin C
COc1ccc(N(C)c2ncnc3occ(C)c23)cc1 | bin A
Cc1c2cnccc2c(C)c2c1c1cc(O)ccc1n2C(C)C | bin A
CCN(CC)CCOc1cccc2c1C(=O)c1cccc(OCCN(CC)CC)c1C2=O | bin B
CCN1CCN(CCC(=O)Nc2cccc(-n3cc(-c4ccncc4)c(-c4ccc(Cl)c(OC)c4)n3)c2)CC1 | bin A
COc1ccc2cc(-c3nc4ccccc4s3)c(Cl)nc2c1OC | bin C
COc1cc2cc(Oc3ccc(NC(=O)c4ccc(Cl)c(C(F)(F)F)c4)cc3)c(C)nc2cc1OC | bin B
CC[N+](CC)=c1ccc2nc3c(cc(NCc4ccccc4)c4ccccc43)oc-2c1 | bin A
COc1cc(-c2nn(-c3cccc(NC(=O)NCCNC(=O)c4ccccc4)c3)cc2-c2ccncc2)ccc1Cl | bin A
CCc1c2c(nc3ccc(OC(=O)N4CCC(N5CCCCC5)CC4)cc13)-c1cc3c(c(=O)n1C2)COC(=O)[C@]3(O)CC | bin B
CN(C)CCCOc1cccc(NC2=C(Cl)C(=O)C(Nc3cccc(OCCCN(C)C)c3)=C(Cl)C2=O)c1 | bin A
CCOc1ccccc1/C=N/N1CCCCCC1 | bin C
CC1OC2CC(=O)OC2C2=C1C(=O)c1c(O)c3c(c(O)c1C2=O)C1CC(O)C3(O)C(C)O1 (centres undefined) | bin A
C#CC(C)(O)[C@@H]1C[C@H](CC(=O)O)C1(C)C (some centres undefined) | bin C
CSc1nc(S(C)(=O)=O)nc2[nH]c(=O)[nH]c12 | bin C
CC(C)CCN(CCC(C)C)CC(=O)Nc1ccc(S(=O)(=O)c2ccc(NC(=O)CN(CCC(C)C)CCC(C)C)cc2)cc1 | bin A
CCN(CC)c1ccc(/C=C2\SC(=O)C(Nc3nnc(-c4cccnc4SCc4ccccc4)o3)C2=O)cc1 (centres undefined) | bin A
CN(C)CCOc1ccc(-c2nc3sccn3c2-c2ccnc(S(C)(=O)=O)n2)cc1 | bin C
NC1=NC(c2ccc(Cl)cc2)C2=C(N1)/C(=C/c1ccc(Cl)cc1)CCC2 (centres undefined) | bin B
COc1ccc2nc3cc(Cl)ccc3c(NCCCNCCO)c2c1 | bin A
N#CC1=C(N)Oc2cc(N)ccc2C1c1cccnc1 (centres undefined) | bin C
COc1cc(-c2nn(-c3cccc(NC(=O)NCCNS(=O)(=O)c4ccc(Cl)cc4)c3)cc2-c2ccncc2)ccc1Cl | bin B
Cc1ccc(-n2c(C)nn3c(=O)c4c5c(sc4nc23)CN(C)CC5)cc1 | bin C
S=C(NCc1ccccc1)NCc1ccccc1 | bin C
COc1cc(-c2csc(NC(=O)Nc3cc(C(F)(F)F)cc(C(F)(F)F)c3)n2)cc(OC)c1OC | bin A
N#Cc1c(-c2ccc(Cl)cc2)cc(-c2cc(O)ccc2O)nc1N | bin B
O=C1/C=C/[C@@H](O)[C@@H]2C[C@@H](O)C[C@H]2/C=C/CCC[C@@H](C(F)(F)F)O1 | bin C
CCOC(=O)CC(S(=O)(=O)c1ccccc1)S(=O)(=O)c1ccccc1 | bin C

These entries and their values trace back to PubChem BioAssay (NCI).
